- System Name: HLA-A*02:01 (Homo sapiens, UniProt P04439, D140Y/D185E/D98H/E176V/E277Q/G131W/G231S/I119V/I121R/I166T/I218V/L300P/L318F/N151K/N90K/P208A/P217A/Q86G/Q94H/R138H/R169H/T345S)
- Test Details: MHC binding assay, UV-ligand exchange with beta2m ELISA (exchange yield), HLA-A*02
- Assay Conditions: binding to HLA-A*02 ranged by peptide exchange yield
- From the text: Candidate peptides for T cell based therapies according to the present invention were further tested for their MHC binding capacity (affinity). The individual peptide-MHC complexes were produced by UV-ligand exchange, where a UV-sensitive peptide is cleaved upon UV-irradiation, and exchanged with the peptide of interest as analyzed. Only peptide candidates that can effectively bind and stabilize the peptide-receptive MHC molecules prevent dissociation of the MHC complexes. […]
Endpoint: Peptide exchange (MHC class I binding score)

Solved cases (5 shown):
Substance | Data Value
70 (GLFSQHFNL; listed as Homo sapiens) [compound 70] | +++ (50%-75% = +++)
325 (RLLPKVQEV; listed as Homo sapiens) [compound 325] | ++ (20%-49% = ++)
5 (SLFGQEVYC; listed as Homo sapiens) [compound 5] | +++ (50%-75% = +++)
40 (SLLALPQDLQA; listed as Homo sapiens) [compound 40] | +++ (50%-75% = +++)
49 (LLDESKLTL; listed as Homo sapiens) [compound 49] | +++ (50%-75% = +++)

For each of the items listed, what is its Peptide exchange (MHC class I binding score)?
1. 89 (YLVAHNLLL; listed as Homo sapiens) [compound 89]
2. 338 (LLYDGKLSSA; listed as Homo sapiens) [compound 338]
3. 24 (FLWNGEDSAL; listed as Homo sapiens) [compound 24]
4. 67 (GVIETVTSL; listed as Homo sapiens) [compound 67]
5. 76 (ILLDESNFNHFL; listed as Homo sapiens) [compound 76]
6. 47 (GLYQAQVNL; listed as Homo sapiens) [compound 47]

Reply |
1. +++ (50%-75% = +++)
2. ++ (20%-49% = ++)
3. +++ (50%-75% = +++)
4. ++ (20%-49% = ++)
5. +++ (50%-75% = +++)
6. +++ (50%-75% = +++)
